Biological target: HA-tagged PA of FluA (Influenza A virus)
Test: ELISA
Where no end group is shown, it is not given here.
OUTCOME MEASURE: IC50

**Query** Please give the measured IC50 for this binder: MNINPYFLFIDVPIQ-NH2 [PB1_(1–15)B competitor peptide]
**Result** > 3000 nM
